molecular target: PDE3 (Homo sapiens)
Sequence (Q14432 whole entry): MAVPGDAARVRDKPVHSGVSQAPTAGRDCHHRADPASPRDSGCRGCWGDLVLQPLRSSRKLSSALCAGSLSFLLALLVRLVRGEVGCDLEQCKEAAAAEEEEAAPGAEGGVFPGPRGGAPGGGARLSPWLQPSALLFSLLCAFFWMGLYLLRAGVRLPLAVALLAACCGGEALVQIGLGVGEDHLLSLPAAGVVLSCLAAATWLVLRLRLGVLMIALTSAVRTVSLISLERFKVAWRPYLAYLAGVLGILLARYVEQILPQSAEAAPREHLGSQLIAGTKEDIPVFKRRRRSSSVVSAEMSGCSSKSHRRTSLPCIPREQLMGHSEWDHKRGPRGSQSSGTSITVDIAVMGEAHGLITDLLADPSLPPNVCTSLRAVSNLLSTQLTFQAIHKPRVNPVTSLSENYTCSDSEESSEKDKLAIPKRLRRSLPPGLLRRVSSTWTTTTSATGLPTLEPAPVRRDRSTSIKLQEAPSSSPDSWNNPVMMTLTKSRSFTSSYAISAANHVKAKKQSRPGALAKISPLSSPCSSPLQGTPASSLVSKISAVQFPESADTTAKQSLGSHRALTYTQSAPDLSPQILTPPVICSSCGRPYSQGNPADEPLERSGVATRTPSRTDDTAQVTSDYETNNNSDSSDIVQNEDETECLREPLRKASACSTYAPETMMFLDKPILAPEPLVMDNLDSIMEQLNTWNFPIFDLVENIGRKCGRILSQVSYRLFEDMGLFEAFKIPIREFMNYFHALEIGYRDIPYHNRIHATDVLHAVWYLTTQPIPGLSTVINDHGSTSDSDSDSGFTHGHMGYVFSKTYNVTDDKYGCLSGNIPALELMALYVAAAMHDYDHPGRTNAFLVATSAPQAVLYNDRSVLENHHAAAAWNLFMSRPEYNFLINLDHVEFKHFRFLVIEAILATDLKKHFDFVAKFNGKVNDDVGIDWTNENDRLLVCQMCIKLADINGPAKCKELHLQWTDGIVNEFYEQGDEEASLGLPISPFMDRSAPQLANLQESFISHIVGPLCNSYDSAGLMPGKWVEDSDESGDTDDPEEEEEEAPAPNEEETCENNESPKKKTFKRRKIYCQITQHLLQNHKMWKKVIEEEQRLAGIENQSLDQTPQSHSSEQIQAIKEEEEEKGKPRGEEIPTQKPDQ
Quantity Measured: pIC50
Give bare numbers, as −log10 of the molar value.

Query block: Give PDE3 (Homo sapiens) pIC50 for "COc1cc(/C=C(/C(=O)N(C)C)c2ccc(Oc3ccc(CCC(=O)NC(N)=O)cc3)cc2)cc(OC)c1"
Result block: 4.87

====

biological target: PDE4; experiment: Inhibition of PDE4 enzyme activity; details: PDE4 from human U-937 promonocytic cells
Quantity Measured: IC50

Query block: // IC50 lookup, key: COc1cc(/C=C(/C(=O)N(C)C)c2ccc(Oc3ccc(CCC(=O)NC(N)=O)cc3)cc2)cc(OC)c1 [Compound 13]
Result block: < 1000 nM
